Test system: RIPK5;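 further: KINOMEscan kinase panel screen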
reported.conditions: concentration: 1 μM, replicates: in singlicate; n = 1
Record form. Attribute: %Inh. Fill in for each entry.
Write the answer as a number in %, unit excluded.

Output measured %Inh for this item: Cc1cccc(Nc2nc(N[C@H]3CCNC3)ncc2C(N)=O)c1.Cl
1

Output measured %Inh for this item: Cn1cc(-c2[nH]c3cc(NC(=O)[C@H](N)C4CCCCC4)cc4c3c2C=NNC4=O)cn1
25

Output measured %Inh for this item: CN1CCN(CCCNc2nccc(-c3c(-c4ccc(F)cc4)nn4cc(C(F)(F)F)ccc34)n2)CC1
0

Output measured %Inh for this item: Cc1ccc(F)c(C(=O)Nc2cccc(-c3nn4ccccc4c3-c3ccnc(Nc4cccc(F)c4)n3)c2)c1F
0

Output measured %Inh for this item: Fc1ccc(-c2ncn(C3CCNCC3)c2-c2ccnc(Oc3ccc(-c4ccccc4)cc3)n2)cc1
33

Output measured %Inh for this item: Oc1cc(Nc2ccnc3cc(I)ccc23)ccc1F
0

Output measured %Inh for this item: CCS(=O)(=O)c1ccc(OC)c(Nc2nccc(-c3c(-c4cccc(NC(=O)c5c(F)cccc5F)c4)nn4ncccc34)n2)c1
10

Output measured %Inh for this item: CN(C)Cc1ccc(-c2ccc3c(Nc4ccc(Oc5ccccn5)cc4)ccnc3c2)o1
0

Output measured %Inh for this item: COc1ccc(Nc2nccc(N3CCC(NC(=O)Nc4cccc(OC)c4)C3)n2)cc1 (centres unmarked)
0

Output measured %Inh for this item: C[C@@H]1CC[C@@H](C(=O)Nc2ccccc2)CN1c1cc(-c2ccc3c(N)n[nH]c3c2)nc(N)n1
0

Output measured %Inh for this item: FC(F)(F)c1ccc(/C=C/c2cncnc2Nc2ccc3[nH]c(Cc4ccccc4)nc3c2)cc1
0

Output measured %Inh for this item: COc1cc2c(cc1OCCN1CCNCC1)ncc1c3ccc(C#N)cc3[nH]c21
28

Output measured %Inh for this item: CSc1cccc2c(-c3ccncn3)c(-c3ccc(F)cc3)nn12
19

Output measured %Inh for this item: Cc1cccc(NC(=O)Nc2ccc(Oc3ncnc4ccn(C)c34)cc2)c1
5

Output measured %Inh for this item: O=C(NC1CCN(c2ccnc(Nc3ccc(F)cc3)n2)C1)c1cc2ccccc2s1 (centres unmarked)
13

Output measured %Inh for this item: CN(C)S(=O)(=O)c1cc(-c2ccc3nccc(-c4cccc(S(N)(=O)=O)c4)c3c2)cnc1N
26

Output measured %Inh for this item: Cl.Cl.NCC(NCc1ccc(-c2ccnc3[nH]ccc23)s1)c1ccccc1 (centres unmarked)
0

Output measured %Inh for this item: Cl.Cl.NCC(C(=O)Nc1cc(Br)c(-c2ccnc3[nH]ccc23)s1)c1ccccc1 (centres unmarked)
0

Output measured %Inh for this item: COC(=O)Nc1nc2cc(Oc3ccc(NC(=O)Nc4cc(C(F)(F)F)ccc4F)cn3)ccc2[nH]1.Cl.Cl
0

Output measured %Inh for this item: CCCCc1nn2ncccc2c1-c1ccnc(Nc2ccc(N3CCN(C)CC3)cc2)n1
56

Output measured %Inh for this item: C[C@@H](Oc1cc(-n2cnc3cc(-c4ccnc(NCCS(C)(=O)=O)c4)ccc32)sc1C(N)=O)c1ccccc1Cl
5

Output measured %Inh for this item: CC(C)c1nc(-c2cccc(NS(=O)(=O)c3c(F)cccc3F)c2F)c(-c2ccnc(Nc3ccc(N4CCOCC4)nc3)n2)s1
92.6

Output measured %Inh for this item: COc1cc(Nc2ncc3c(C)nc(-c4cc5ccccc5[nH]4)n3n2)cc(OC)c1OC
0
